Tested on: Escherichia coli (11775 Apid R)
Type: cell-based
Settings: agar plate, 50 nanomoles/well, 3 mm wells
Residues, ends and D or L forms follow the SMILES beside them.
readout: inhibition zone diameter (number of plus signs)

1. CC[C@H](C)[C@H](NC(=O)[C@@H]1CCCN1C(=O)[C@H](C)NC(=O)[C@@H]1CCCN1C(=O)[C@H](CCCNC(=N)N)NC(=O)[C@@H]1CCCN1C(=O)[C@H](CCCCN)NC(=O)[C@@H](N)CO)C(=O)N[C@@H](CCCCN)C(=O)N1CCC[C@H]1C(=O)N[C@@H](CCCNC(=N)N)C(=O)N1CCC[C@H]1C(=O)N1CCC[C@H]1C(=O)N[C@@H](Cc1c[nH]cn1)C(=O)N1CCC[C@H]1C(=O)N[C@@H](CCCNC(=N)N)C(=O)N[C@@H](CC(C)C)C(=O)O [Cd 3-] (H-SKPRPAPIKPRPPHPRL-OH) ... ++ ((++) 7-9 mm)
2. CC[C@H](C)[C@H](NC(=O)[C@@H]1CCCN1C(=O)[C@H](C)NC(=O)[C@@H]1CCCN1C(=O)[C@H](CCCNC(=N)N)NC(=O)[C@@H]1CCCN1C(=O)[C@H](CCCCN)NC(=O)[C@H](CO)NC(=O)[C@@H]1CCCN1C(=O)[C@H](CCCCN)NC(=O)CN)C(=O)N[C@@H](CCCCN)C(=O)N1CCC[C@H]1C(=O)N[C@@H](CCCNC(=N)N)C(=O)N1CCC[C@H]1C(=O)N1CCC[C@H]1C(=O)N[C@@H](Cc1c[nH]cn1)C(=O)N1CCC[C@H]1C(=O)N[C@@H](CCCNC(=N)N)C(=O)N[C@@H](CC(C)C)C(=O)O [Cd 3+] (H-GKPSKPRPAPIKPRPPHPRL-OH) ... ++ ((++) 7-9 mm)
3. CC[C@H](C)[C@H](NC(=O)[C@@H]1CCCN1C(=O)[C@H](C)NC(=O)[C@@H]1CCCN1C(=O)[C@H](CCCNC(=N)N)NC(=O)[C@@H]1CCCN1C(=O)[C@H](CCCCN)NC(=O)[C@@H](N)CC(N)=O)C(=O)N[C@@H](CCCCN)C(=O)N1CCC[C@H]1C(=O)N[C@@H](CCCNC(=N)N)C(=O)N1CCC[C@H]1C(=O)N1CCC[C@H]1C(=O)N[C@@H](Cc1c[nH]cn1)C(=O)N1CCC[C@H]1C(=O)N[C@@H](CCCNC(=N)N)C(=O)N[C@@H](CC(C)C)C(=O)O [Cd 2-] (H-NKPRPAPIKPRPPHPRL-OH) ... ++ ((++) 7-9 mm)
